Biological target: Jak2 (UniProt O60674)
Sequence (O60674 whole entry, looked up): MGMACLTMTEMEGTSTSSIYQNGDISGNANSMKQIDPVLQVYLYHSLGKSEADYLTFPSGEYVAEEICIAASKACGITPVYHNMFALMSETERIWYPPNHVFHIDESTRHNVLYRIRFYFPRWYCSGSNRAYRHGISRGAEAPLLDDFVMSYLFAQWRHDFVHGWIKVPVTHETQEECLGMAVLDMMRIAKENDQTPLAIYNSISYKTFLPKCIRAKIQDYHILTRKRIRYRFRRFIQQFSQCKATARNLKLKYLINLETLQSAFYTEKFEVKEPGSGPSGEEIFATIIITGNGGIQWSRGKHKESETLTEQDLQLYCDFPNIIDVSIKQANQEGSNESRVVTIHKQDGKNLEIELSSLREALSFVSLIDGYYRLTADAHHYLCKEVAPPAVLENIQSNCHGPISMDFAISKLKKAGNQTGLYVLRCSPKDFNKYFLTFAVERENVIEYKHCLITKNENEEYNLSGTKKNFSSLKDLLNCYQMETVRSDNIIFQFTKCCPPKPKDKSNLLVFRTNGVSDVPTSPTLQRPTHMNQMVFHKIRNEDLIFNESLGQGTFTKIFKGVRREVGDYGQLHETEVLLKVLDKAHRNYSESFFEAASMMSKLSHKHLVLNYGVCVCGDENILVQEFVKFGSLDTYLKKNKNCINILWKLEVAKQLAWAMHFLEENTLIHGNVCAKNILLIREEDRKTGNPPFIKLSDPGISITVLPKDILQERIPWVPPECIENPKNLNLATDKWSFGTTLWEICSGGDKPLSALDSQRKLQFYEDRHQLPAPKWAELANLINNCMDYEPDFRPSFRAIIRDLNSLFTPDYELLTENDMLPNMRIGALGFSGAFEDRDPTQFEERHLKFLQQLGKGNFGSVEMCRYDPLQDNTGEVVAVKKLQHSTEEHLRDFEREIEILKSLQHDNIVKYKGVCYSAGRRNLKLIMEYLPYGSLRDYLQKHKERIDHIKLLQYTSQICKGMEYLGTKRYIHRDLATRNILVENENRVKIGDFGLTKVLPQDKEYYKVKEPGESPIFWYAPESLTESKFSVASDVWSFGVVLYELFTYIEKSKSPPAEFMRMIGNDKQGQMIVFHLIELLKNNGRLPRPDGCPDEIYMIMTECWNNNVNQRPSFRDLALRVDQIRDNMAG
Test: phosphorylation enrichment, bacterial display (enrichment ratio); higher = better substrate or ligand; peptides without Tyr show the background;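 also: 11-residue human phosphosite peptides and single-mutation variants displayed on the E. coli surface, counted by deep sequencing, each peptide's frequency after selection divided by its frequency in the unselected input library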;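 also: frequency after pTyr selection over input frequency; kinase dosed for 20-30% of maximal phosphorylation in three min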
ASSAY_READOUT: phosphorylation enrichment
A bare number is all that is needed in reply.

Would you kindly share the measured phosphorylation enrichment for HNGVSYYINLC [IGF2R_Y2024] ?
1.35

What phosphorylation enrichment value was documented for this sequence, EVEFEYPFRLH [SYP_Y73] ?
1.5

Give the measured phosphorylation enrichment of KDQPDYKFQPR [SOX9_Y172_H169Q_YF] .
0.491

Given the entry IHHIDYYKKTT [FGFR1_Y653] , report its measured phosphorylation enrichment.
0.534

Look up phosphorylation enrichment: SMGHRYIEVFR [HNRNPF_Y82_K87R]
0.688

Can you look up the measured phosphorylation enrichment of SRGHQYQELPR [KCNH2_Y1009_R1007H] for me?
0.721

Quick check: phosphorylation enrichment of EAVSIYQFFGQ [CBLC_Y402_H405Y_YF] ?
1.34

Find the recorded phosphorylation enrichment belonging to AQESNYRLLRQ [SLC20A2_Y377_R382Q] and report it.
0.754

Item under review: LKGQVDILGRE [ASS1_Y359_Y359D] . Reported phosphorylation enrichment?
1.26

I would be grateful if you could share the reported phosphorylation enrichment for SVTCTYSPAVN [TP53_Y126_L130V] .
1.49

Could you share which phosphorylation enrichment value was measured for RHPLEYLRQYP [NARS2_Y138] ?
1.22

What value of phosphorylation enrichment has been reported for the following sequence? ARAFIYAIIPA [ACKtide_2014]
1.86

Reported phosphorylation enrichment for EFKKHYGYSLY [ANXA3_Y295] : what is it?
0.555

For NARGLYFKLHN [GATA2_Y376_C373R_YF] , what is its reported phosphorylation enrichment?
1.67

----------
Please provide measured phosphorylation enrichment for the entries that follow.
Test system: c-Src
Experiment: phosphorylation enrichment, bacterial display (enrichment ratio); higher = better substrate or ligand; peptides without Tyr show the background
API doc: respond with a numeric literal and nothing else, no unit.

Requested field: phosphorylation enrichment. Item: TYGQVYKGPHV [TNIK_Y40_R43P]
9.04

# input sequence: DRPSEYAARQL [ANXA13_Y90] ; wanted: its phosphorylation enrichment
0.389

Given FSTDCYRVGGH [NTRK2_Y707_Y706C_YF] , state its recorded phosphorylation enrichment.
0.608

Recorded phosphorylation enrichment for SHGKRYRVPSD [HHIPL2_Y395] , please?
0.352

Item LARDMHDKEFF [MET_Y1230_Y1230H_YF] has what recorded phosphorylation enrichment?
0.671

# get_value(readout='phosphorylation enrichment', item= STEEQYRICQV [EFHC1_Y115_R118C] )
0.566

Given FETVKYFNNER [ABCB7_Y345_YF] , state its recorded phosphorylation enrichment.
0.345

Consider the sequence QDRTFYERVRT [SPEN_Y633_S635R_YF] and give its measured phosphorylation enrichment.
0.402

Entry FARNSYVAGQY [G6PD_Y107] has what phosphorylation enrichment?
0.535

Suppose we examine the sequence AGADGYDFLAP [FOXL2_Y186_G187D_YF] ; what phosphorylation enrichment value has been reported?
0.555

What value of measured phosphorylation enrichment is listed for DAVKHYMQFRK [CNGA2_Y395] ?
0.441

Data request, read-out phosphorylation enrichment, for PIPAAYNKYDQ [CDC73_Y290_R292K]
0.689

Would you mind telling me what phosphorylation enrichment value was observed for CTTIHYNFMGN [TP53_Y234_C238G_YF] ?
0.402

What does the record list as phosphorylation enrichment for FVPSFYHAFSG [ACTN4_Y265_S262P_YF] ?
1.88

For TVSSDYLHPQF [CCPG1_Y569_F566S_YF] , what is its reported phosphorylation enrichment?
0.457

What value of phosphorylation enrichment has been reported for the following sequence? CEQELYSQLVY [WAS_Y102_W97C]
5.28

Quick one: phosphorylation enrichment for LQKPMYEVQWK [KIT_Y553] ?
0.617

Which measured phosphorylation enrichment value corresponds to SEELHYFVQNH [UQCRC2_Y207] ?
0.685

Need phosphorylation enrichment of MKALGYFAVGT [OPA1_Y498_V502G] , thanks.
0.487

# lookup: phosphorylation enrichment of KFANSYRMEPL [TCTE3_Y87]
0.528

Entry under review: HISGVYKLPPD [ANGPTL7_Y145_R140H] . Reported phosphorylation enrichment?
2.3

Recorded phosphorylation enrichment for HICTAYKLVLA [DHCR24_Y190_E191K] , please?
1.34

I would be grateful if you could share the reported phosphorylation enrichment for NVQIVYKPVDL [MAPT_Y627_S622N] .
0.415

Would you mind telling me what phosphorylation enrichment value was observed for EAVKNYTEKRG [PBRM1_Y672_D674E] ?
0.335

Report phosphorylation enrichment for HAEERYGKELV [PSTPIP1_Y53_Q48H] please.
0.569

phosphorylation enrichment for NGLVACKDGKL [PMM2_Y76_Y76C] ?
0.387

Fill in the blank: the reported phosphorylation enrichment of PSRKDYETYQS [CTNND2_Y1154_P1159S] is ____.
0.948

Sample EEGESDVCSSD [DCX_Y125_Y125D] — what was its phosphorylation enrichment?
0.518
